- TARGET_OR_TEST_SYSTEM: bovine carbonic anhydrase II (CAII) (Bos taurus)
- Construct: purchased Sigma-Aldrich C7749
- Sequence (P00921 whole entry): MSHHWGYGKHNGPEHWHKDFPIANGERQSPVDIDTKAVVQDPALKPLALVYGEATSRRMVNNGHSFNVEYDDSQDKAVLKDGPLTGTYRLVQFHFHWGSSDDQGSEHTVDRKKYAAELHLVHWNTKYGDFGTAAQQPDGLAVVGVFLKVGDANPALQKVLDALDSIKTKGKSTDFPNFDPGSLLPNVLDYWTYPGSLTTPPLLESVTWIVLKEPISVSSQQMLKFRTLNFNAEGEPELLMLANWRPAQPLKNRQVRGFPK
- METHOD_SUMMARY: Carbonic anhydrase II inhibition assay (esterase activity on p-nitrophenyl acetate)
- Format: biochemical
- CONDITION_SET: 64 nM compound; source data of Fig. 2c; read-out: Normalized CA II Activity (Mean)
MEASURE_NAME: remaining activity at 0.064 µM

[[record]]
cpd_smiles = "NS(=O)(=O)c1ccc(NC(=O)c2ccc(-n3cc(CCC(=O)NCCNC(=O)/C=C/c4ccc(-c5ccccc5C(F)(F)F)o4)nn3)cc2)cc1"
target_or_test_system = "bovine carbonic anhydrase II (CAII) (Bos taurus)"
observed_measurement = "89.8%"

[[record]]
cpd_smiles = "NS(=O)(=O)c1ccc(NC(=O)/C=C/c2ccc(-c3ccccc3C(F)(F)F)o2)cc1"
target_or_test_system = "bovine carbonic anhydrase II (CAII) (Bos taurus)"
observed_measurement = "84.9%"

[[record]]
cpd_smiles = "NS(=O)(=O)c1ccc(NC(=O)COc2ccccc2OCC(=O)NCCNC(=O)/C=C/c2ccc(-c3ccccc3C(F)(F)F)o2)cc1"
target_or_test_system = "bovine carbonic anhydrase II (CAII) (Bos taurus)"
observed_measurement = "83%"

[[record]]
cpd_smiles = "NS(=O)(=O)c1ccc(NC(=O)COCC(=O)NCCNC(=O)/C=C/c2ccc(-c3ccccc3C(F)(F)F)o2)cc1"
target_or_test_system = "bovine carbonic anhydrase II (CAII) (Bos taurus)"
observed_measurement = "90.2%"

[[record]]
cpd_smiles = "NS(=O)(=O)c1ccc(NCc2ccc(C(=O)NCCNC(=O)/C=C/c3ccc(-c4ccccc4C(F)(F)F)o3)cc2)cc1"
target_or_test_system = "bovine carbonic anhydrase II (CAII) (Bos taurus)"
observed_measurement = "87.7%"

